test.readout: IC50

Quick check: IC50 on human JAK1 (a.a. 837-1142) catalytic domain (Homo sapiens, UniProt P23458), item N#CCC1(n2cc(-c3ncnc4[nH]ccc34)cn2)CN(c2cnc(C(=O)NC3(C(F)(F)F)CC3)cn2)C1 ? < 10 nM

So what IC50 did CC(C)NC(=O)c1cc(F)c(N2CC(CC#N)(n3cc(-c4ncnc5[nH]ccc45)cn3)C2)cc1F get with human JAK1 (a.a. 837-1142) catalytic domain (Homo sapiens, UniProt P23458)? < 10 nM

Form entry - test system: human JAK1 (a.a. 837-1142) catalytic domain (Homo sapiens, UniProt P23458); read-out: IC50; compound: C[C@H](NC(=O)c1ccc(N2CC(CC#N)(n3cc(-c4ncnc5[nH]ccc45)cn3)C2)c(F)c1)C(F)(F)F < 10 nM

Lab note: need IC50 for CN(C(=O)c1ccc(N2CC(CC#N)(n3cc(-c4ncnc5[nH]ccc45)cn3)C2)c(F)c1)C1CC1 on human JAK1 (a.a. 837-1142) catalytic domain (Homo sapiens, UniProt P23458), anyone have it? < 10 nM

Give the reported IC50 for N#CCC1(n2cc(-c3ncnc4[nH]ccc34)cn2)CN(c2ccc(C(=O)N[C@@H](C3CC3)C(F)(F)F)cc2)C1 (system: human JAK1 (a.a. 837-1142) catalytic domain (Homo sapiens, UniProt P23458)). < 10 nM

Missing value: IC50, human JAK1 (a.a. 837-1142) catalytic domain (Homo sapiens, UniProt P23458), entry C[C@@H](NC(=O)c1ccc(N2CC(CC#N)(n3cc(-c4ncnc5[nH]ccc45)cn3)C2)c(F)c1)C(F)(F)F . Fill in? < 10 nM

Fill in the recorded IC50 for this compound, with human JAK1 (a.a. 837-1142) catalytic domain (Homo sapiens, UniProt P23458) as test system: CC(NC(=O)c1ccc(N2CC(CC#N)(n3cc(-c4ncnc5[nH]ccc45)cn3)C2)cc1)C(F)(F)F (stereo not shown) < 10 nM
